The molecules listed here are annotated with their DC50.
# measured target: Nanoluciferase-BRD9 fusion protein (Homo sapiens (Human), UniProt Q9H8M2)
# Sequence (Q9H8M2 whole entry, the tested form may be a part): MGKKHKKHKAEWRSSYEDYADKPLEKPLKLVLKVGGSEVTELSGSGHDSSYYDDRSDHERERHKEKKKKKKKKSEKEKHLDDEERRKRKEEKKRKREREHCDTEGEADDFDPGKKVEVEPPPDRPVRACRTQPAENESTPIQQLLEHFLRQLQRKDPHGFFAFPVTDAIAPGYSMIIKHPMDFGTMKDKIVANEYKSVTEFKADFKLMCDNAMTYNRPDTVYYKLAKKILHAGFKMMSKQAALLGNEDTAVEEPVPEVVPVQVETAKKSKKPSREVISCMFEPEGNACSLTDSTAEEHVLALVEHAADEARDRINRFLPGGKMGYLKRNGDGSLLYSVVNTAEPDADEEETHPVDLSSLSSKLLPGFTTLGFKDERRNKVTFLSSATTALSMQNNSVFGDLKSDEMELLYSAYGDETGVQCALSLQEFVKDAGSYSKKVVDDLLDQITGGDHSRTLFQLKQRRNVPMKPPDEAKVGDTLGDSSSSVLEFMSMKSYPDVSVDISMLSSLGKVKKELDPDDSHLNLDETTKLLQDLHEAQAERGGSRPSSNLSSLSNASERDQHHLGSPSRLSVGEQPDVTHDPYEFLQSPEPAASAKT
# experiment description: SYO1 BRD9 NanoLuc degradation assay
# Assay type: cell-based
# test settings: Table 5B; SYO-1 cells expressing 3×FLAG-NLuc-BRD9, 6 hours; read-out: SYO1 BRD9-NanoLuc degradation IC50
reported metric: DC50

molecule="COc1cc(-c2cn(C)c(=O)c3cnccc23)cc(OC)c1CN1CCC2(CC1)CCN(CC#Cc1ccc3c(c1)C(=O)N(C1CCC(=O)NC1=O)C3=O)C2 (centres unmarked)" result="< 10 nM"
molecule="COc1cc(-c2cn(C)c(=O)c3cnccc23)cc(OC)c1CN1CC(CC(=O)N2CCCC3(CC(Oc4ccc5c(c4)C(=O)N([C@H]4CCC(=O)NC4=O)C5=O)C3)C2)C1 (some centres unmarked)" result="100 to 1000 nM"
molecule="COc1cc(-c2cn(C)c(=O)c3cnccc23)cc(OC)c1CN1CC(CC(=O)N2CC3(CCN(c4ccc5c(c4)C(=O)N(C4CCC(=O)NC4=O)C5=O)C3)C2)C1 (centres unmarked)" result="100 to 1000 nM"
molecule="COc1cc(-c2cc(C)c(=O)n(C)c2)cc(OC)c1CN1CC(C#Cc2ccc3c(c2)C(=O)N(C2CCC(=O)NC2=O)C3=O)C1 (centres unmarked)" result="< 10 nM"
molecule="COc1cc(-c2cn(C)c(=O)c3nc(O)ccc23)cc(OC)c1CN1CCC(CN2CCC3(CC2)CC(Oc2ccc4c(c2)CN(C2CCC(=O)NC2=O)C4=O)C3)CC1 (centres unmarked)" result="< 10 nM"
